tested on: MT4; assay: Inhibitory activity against resistant HIV-1 strain MC639r was determined.; format: functional, cell-based; conditions: Homo sapiens
pEC50: −log10 of the molar value.
Decide using pEC50: a value greater than or equal to 5 is criterion met, a smaller one is criterion not met.

Does the reported pEC50 for CCC(C)Sc1nc(O)cc(Cc2ccc3ccccc3c2)n1 (stereo not drawn) fall at or above the 5 mark?
criterion met

Does the reported pEC50 for CCC(C)Sc1nc(O)cc(Cc2cccc3ccccc23)n1 (stereo not drawn) fall at or above the 5 mark?
criterion met

Does the reported pEC50 for CCC(C)Sc1nc(O)c(C)c(Cc2ccc3ccccc3c2)n1 (stereo not drawn) fall at or above the 5 mark?
criterion not met

Does the reported pEC50 for Cc1cccc(Cc2nc(SC3CCCCC3)nc(O)c2C)c1 fall at or above the 5 mark?
criterion not met

Does the reported pEC50 for Oc1cc(Cc2ccc3ccccc3c2)nc(SC2CCCCC2)n1 fall at or above the 5 mark?
criterion not met

Does the reported pEC50 for Cc1c(O)nc(SC2CCCC2)nc1Cc1cccc2ccccc12 fall at or above the 5 mark?
criterion not met

Does the reported pEC50 for Cc1ccnc2c1NC(=O)c1cccnc1N2C1CC1 fall at or above the 5 mark?
criterion met

Does the reported pEC50 for CCC(C)Sc1nc(O)c(C)c(Cc2cccc3ccccc23)n1 (stereo not drawn) fall at or above the 5 mark?
criterion met
